FYI, the data here is from paper PMC11480844.

B1: H2-Kb / B15 (parent complex)
chain 1: QQQVRQSPQSLTVWEGETAILNCSYENSAFDYFPWYQQFPGEGPALLISILSVSDKKEDGRFTIFFNKREKKLSLHIADSQPGDSATYFCAASAASNNRLTLGKGTQVVVLP
chain 2: DSGVVQSPRHIIKEKGGRSVLTCIPISGHSNVVWYQQTLGKELKFLIQHYEKVERDKGFLPSRFSVQQFDDYHSEMNMSALELEDSAMYFCASSRRADAEQFFGPGTRLTVL
chain 3: not shown
chain 4: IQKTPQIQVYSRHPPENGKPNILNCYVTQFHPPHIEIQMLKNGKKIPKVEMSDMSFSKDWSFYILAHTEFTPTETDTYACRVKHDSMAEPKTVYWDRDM
chain 5: SIINFEKL

variants of: B1; experiment: % of reporter cells activated (NFAT-GFP), raw; also: test concentration or dose not given here
# if measured ratio to parent < 0.8: TRUE  # else: FALSE

>>> group("chain 5 I3N")
"TRUE"
>>> group("chain 5 I2G")
"FALSE"
>>> group("chain 5 S1A")
"FALSE"
>>> group("chain 5 F5N")
"TRUE"

ratio to parent strictly < 0.8 for this variant? chain 5 K7L
TRUE

I'd appreciate it if you could check whether chain 5 E6D has ratio to parent smaller than 0.8.
FALSE

Hello, is ratio to parent of the following variant strictly smaller than 0.8? chain 5 E6P
TRUE

Does this variant meet the criterion ratio to parent < 0.8? chain 5 K7A
TRUE
